Where these numbers come from: ChEMBL document CHEMBL3392960

test: Volume of distribution at steady state in iv dosed Sprague-Dawley rat; format: ADME, organism-based; settings: in vivo, read-out: Vdss
parameter: Vd (L/kg)
Numeric only. Scale: L/kg

line_notation=COC(=O)N[C@H](C(=O)N1C[C@@H](C)C[C@H]1c1nc2sc(-c3ccc(-c4ccc(-c5cc6[nH]c([C@@H]7C[C@H](C)CN7C(=O)[C@@H](NC(=O)OC)C(C)C)nc6s5)cc4)cc3)cc2[nH]1)C(C)C parameter=Vd recorded_measurement=2.2

The record that follows has no Vd shown yet.
**Q:** Would you mind telling me what Vd value was observed for COC(=O)N[C@H](C(=O)N1CCC[C@H]1c1nc2sc(C#CC#Cc3cc4[nH]c([C@@H]5CCCN5C(=O)[C@@H](NC(=O)OC)C(C)C)nc4s3)cc2[nH]1)C(C)C ?
**A:** 3.3
